MEASURE NAME: melting point (°C)

>>> result_number("O=[N+]([O-])c1ccccc1Br")
43
>>> result_number("Nc1ccc(-c2ccc(N)cc2Cl)c(Cl)c1")
165
>>> result_number("O=C(NC(=O)c1c(F)cccc1F)Nc1cc(Cl)c(OC(F)(F)C(F)C(F)(F)F)cc1Cl (stereo not drawn)")
166
>>> result_number("O=C1C(=O)c2ccccc2-c2ccccc21")
209
>>> result_number("O=C1c2ccccc2N(C(=O)CN2CCOCC2)CN1c1ccccc1")
136
>>> result_number("CCOCCOC(C)=O")
-61.7
>>> result_number("CC1(C)C=Cc2c(ccc3c2OC2c4ccc(O)cc4OCC32)O1 (stereo not drawn)")
178
>>> result_number("COc1cccc(OC)c1O")
56.5
>>> result_number("CCCCCCCCCCCCCCCCCC(=O)OC")
39.1
>>> result_number("CCC(C)c1cccc(C(C)CC)c1O (stereo not drawn)")
-42
>>> result_number("CC(C)(O)C(=O)c1ccc(OCCO)cc1")
89
>>> result_number("BrCCBr")
9.9
>>> result_number("C[C@@]12CCC[C@H]1[C@@H]1CC[C@H]3CCCC[C@]3(C)[C@H]1CC2")
64.6

* * *

Entries annotated with measured boiling point
MEASURE NAME: boiling point (°C)

>>> result_number("Clc1ccc(C(Cl)(Cl)Cl)cc1")
245
>>> result_number("CCCCCC(=O)OCCC(C)C")
226
>>> result_number("ClCCCCl")
121
>>> result_number("CCC(C)C(C)CC(C)C (centres undefined)")
156
>>> result_number("CCN(CC)CCCN")
168
>>> result_number("C[C@@H](N)C(C)(C)C")
102
>>> result_number("COC(=O)OC")
90.5
>>> result_number("C=C[C@H](C)O")
96.5
>>> result_number("Cc1ccc(C(C)c2ccc(C)cc2)cc1")
298

* * *

Is melting point at least 100 °C? Then TRUE. If not, FALSE.

>>> group("O/N=C\\c1cc[n+](COC[n+]2ccc(/C=N\\O)cc2)cc1.[Cl-].[Cl-]")
"TRUE"
>>> group("CC1=C(C)S(=O)(=O)CCS1(=O)=O")
"TRUE"
>>> group("c1ccc(-c2cc(-c3ccccc3)cc(-c3ccccc3)c2)cc1")
"TRUE"
>>> group("O=C(Nc1ccccc1)OCC1(COC(=O)Nc2ccccc2)CCCC1")
"TRUE"
>>> group("CCCCNC(=O)n1cc(F)c(=O)[nH]c1=O")
"TRUE"
>>> group("CCCCCCCCCCCCCCCCCC(=O)OC1CCCCC1")
"FALSE"
>>> group("O=Cc1cccc(O)c1O")
"TRUE"
>>> group("CCC(CC)c1ccncc1")
"TRUE"
>>> group("Cc1ccc(-c2ccc(C)cc2C)c(C)c1")
"FALSE"
>>> group("c1ccc(-c2ccccc2-c2ccccc2-c2ccccc2)cc1")
"TRUE"
>>> group("CCCCc1ccc(C(=O)O)cc1")
"TRUE"
>>> group("c1ccc(-n2ccnc2)cc1")
"FALSE"
>>> group("C=CCc1ccccc1OCC(O)CNC(C)C (stereo unspecified)")
"TRUE"
>>> group("Cc1nc(NS(=O)(=O)c2ccc(N)cc2)oc1C")
"TRUE"
>>> group("COc1cc(C)c(/C=C/C(C)=C/C=C/C(C)=C/C(=O)O)c(C)c1C")
"TRUE"
>>> group("CCS(=O)(=O)CCn1c([N+](=O)[O-])cnc1C")
"TRUE"
>>> group("CCOC(=O)CC(SP(=S)(OC)OC)C(=O)OCC (stereo unspecified)")
"FALSE"
>>> group("FC(F)=C(F)C(F)(F)F")
"FALSE"
>>> group("O=S(=O)(O)c1ccc(Nc2ccccc2)cc1")
"TRUE"
>>> group("BrCc1ccccc1CBr")
"FALSE"
>>> group("CC(CN1c2ccccc2Sc2ccccc21)N(C)C.Cl (stereo unspecified)")
"TRUE"
>>> group("Nc1ccc(N)nc1")
"TRUE"
>>> group("Oc1cccc(O)c1O")
"TRUE"
>>> group("Oc1cccc2c1CCCC2")
"FALSE"
>>> group("O=C(O)CCCCCCBr")
"FALSE"
>>> group("CC(O)c1ccccc1 (stereo unspecified)")
"FALSE"
>>> group("O[C@@H](Cc1ccccc1)c1ccccc1")
"FALSE"
>>> group("O=C(O)Cc1ccc(F)cc1")
"FALSE"
>>> group("Nc1cccc(Cl)c1Cl")
"FALSE"
>>> group("CCCCCCCCCCCCOC(C)=O")
"FALSE"
>>> group("COc1ccc(C)cc1")
"FALSE"
